Data credit: PubChem BioAssay AID372

# Target desc: Gag-Pol polyprotein (Human immunodeficiency virus type 1 group M subtype B (isolate HXB2))
# Run description: RNase H inhibition, HIV 1 Gag Pol polyprotein, FRET biochemical assay, screening (AID 372)
# Applied conditions: HIV-1 RT RNase H, FRET RNA/DNA substrate fluorescence; at 10 µM
Among all 100,000 compounds or so, about 770 (0.77%) were called active. No stated cut-off is given here; in the data, active means inhibition above about 50%; inactive means the rest. What follows is part of a selection rich in actives, with near analogues and random picks from the rest.
Could you please pick one outcome from this set? TRUE for active, FALSE for inactive

COc1ccc(C(=O)NC(=S)Nc2ccc([N+](=O)[O-])cc2C)cc1Cl	FALSE
COc1cccc(NC(=O)Nc2nnc(-c3ccccc3SCc3ccccc3F)s2)c1	FALSE
CC(C)C1=CC(=NS(=O)(=O)c2ccc(Cl)cc2)C=C(C(C)C)C1=O	FALSE
O=c1c2ccccc2c(-c2ccccc2)nn1Cc1cccc(Br)c1	FALSE
Cc1ccc2nc(/C(C#N)=C/c3ccc(-c4cc([N+](=O)[O-])ccc4O)o3)[nH]c2c1	FALSE
COC(=O)C1=C(C)N(c2ccccc2F)C(=O)/C1=C\c1ccccc1F	FALSE
Cc1cc2nn(-c3ccc(Cl)cc3)nc2cc1NC(=O)c1ccccc1Br	TRUE
O=C(Nc1nc(-c2ccc(Cl)cc2)cs1)c1ccc([N+](=O)[O-])cc1	TRUE
COc1cccc(NC(=O)Nc2nnc(-c3ccccc3I)s2)c1	FALSE
O=c1oc2ccc3ccccc3c2cc1-c1nnc(NCc2ccc(F)cc2)s1	TRUE

Can you look up the reported call for CC(C)Cn1nc(-c2ccccc2)c2ccccc2c1=O for me? FALSE

Can you look up the reported call for CCOC(=O)c1ccc(NC(=O)c2cn(-c3ccccc3)nc2-c2ccccc2)cc1 for me? FALSE

Can you look up the reported call for Cc1ccccc1S(=O)(=O)N=C1C=CC(=O)C(Cl)=C1 for me? FALSE

###

# Target desc: Gag-Pol polyprotein (Human immunodeficiency virus type 1 group M subtype B (isolate HXB2))
# Run description: RNase H inhibition, HIV 1 Gag Pol polyprotein, FRET biochemical assay, screening (AID 372)
# Applied conditions: HIV-1 RT RNase H, FRET RNA/DNA substrate fluorescence; at 10 µM
Among all 100,000 compounds or so, about 770 (0.77%) were called active. Rule as the data show it: active = inhibition above about 50%; inactive = the rest. The sample holds actives, similar compounds and a random draw of the others, so the mix is not that of the screen.
Could you please pick one outcome from this set? active, inactive

COc1ccc(-c2nn(-c3ccccc3)cc2/C=N/NS(=O)(=O)c2ccccc2)cc1	inactive
COc1ccc(-c2ccc(/C=N/n3cnnc3)o2)c([N+](=O)[O-])c1	inactive
CCC(OC(=O)CN1C(=O)C(=O)c2ccccc21)C(=O)Nc1ccc(S(N)(=O)=O)cc1 (stereo not given)	inactive
CCOC(=O)c1sc(NC(=O)/C=C/c2cccc([N+](=O)[O-])c2)nc1C	inactive

Could you now look at the following compound, please?
Can you look up the reported call for COc1ccc([N+](=O)[O-])cc1-c1ccc(/C=N/n2cnnc2)o1 for me? active

###

# Target desc: Gag-Pol polyprotein (Human immunodeficiency virus type 1 group M subtype B (isolate HXB2)) (UniProt P04585)
# Run description: RNase H inhibition, HIV 1 Gag Pol polyprotein, FRET biochemical assay, screening (AID 372)
# Applied conditions: HIV-1 RT RNase H, FRET RNA/DNA substrate fluorescence; at 10 µM; stronger effect = higher value
In all, about 100,000 compounds went through this assay and about 770 (0.77%) were called active. Only a selection was taken, and actives are over-represented in it overall.
Attribute: inhibition

CC1CCc2c(sc(N)c2C#N)C1 (configuration not stated)	57% (active)
CCOc1ccc(/C=C(/C#N)c2ccc(Cl)cc2)cc1Cl	54% (active)

Measured inhibition, O=C(N/N=C/c1cccc(Cl)c1Cl)c1ccc(Cl)c(Cl)c1 : 5% (inactive)

Measured inhibition, CCOc1ccc(/C=C/c2c([N+](=O)[O-])c(=O)n(C)c(=O)n2C)cc1 : 16% (inactive)

Measured inhibition, O=C(N/N=C/c1cccc(Cl)c1Cl)c1ccc(O)cc1 : 0% (inactive)

Measured inhibition, O=C(N/N=C/c1cccc(Cl)c1Cl)c1ccc(O)c(O)c1 : 56% (active)

Measured inhibition, Cc1ccc2c(c1)c(N=NC(=O)COc1ccccc1C)c(O)n2C : 20% (inactive)

###

# Target desc: Gag-Pol polyprotein (Human immunodeficiency virus type 1 group M subtype B (isolate HXB2)) (UniProt P04585)
# Run description: RNase H inhibition, HIV 1 Gag Pol polyprotein, FRET biochemical assay, screening (AID 372)
# Applied conditions: HIV-1 RT RNase H, FRET RNA/DNA substrate fluorescence; at 10 µM; stronger effect = higher value
Hit rate of the full screen: of about 100,000 compounds, about 770 (0.77%) were called active. The full list was thinned out, with actives kept by preference.
Attribute: inhibition
Express it in %; write the number only.

Solved entries (count: 4):
Cc1ccc(C(=O)NC(C(=O)NC(C)(C)C)C23CC4CC(CC(C4)C2)C3)cc1 (stereo not given)	16
Cc1ccc(-n2c(C)cc(C=C3C(=O)NC(=S)NC3=O)c2C)cc1C	19
COc1cc([N+](=O)[O-])ccc1NC(=O)c1cc2ccccc2cc1OC	53
CCOC(=O)C1=C(C)N=c2s/c(=C\c3ccc(-c4ccc(Cl)cc4)o3)c(=O)n2C1c1ccc(SC)cc1 (stereo not given)	0

Measured inhibition, Cc1cc(/C=C2/SC(=S)NC2=O)c(C)n1-c1ccc(Cl)cc1 : 2

Measured inhibition, COc1cc2ccccc2cc1C(=O)Nc1cc([N+](=O)[O-])ccc1F : 46

Measured inhibition, Cc1cc(/C=C2/SC(=S)NC2=O)c(C)n1-c1ccccc1 : 19

Measured inhibition, COc1cc([N+](=O)[O-])ccc1-c1ccc(C(=O)Nc2ccc(I)cc2Cl)o1 : 51

Measured inhibition, O=C(O)c1c(Br)c(Br)c(Br)c(Br)c1C(=O)NCCC1=CCCCC1 : 0

Measured inhibition, O=C(Nc1cc([N+](=O)[O-])ccc1F)c1ccc(-c2cc(Cl)ccc2Cl)o1 : 31

###

# Target desc: Gag-Pol polyprotein (Human immunodeficiency virus type 1 group M subtype B (isolate HXB2)) (UniProt P04585)
# Run description: RNase H inhibition, HIV 1 Gag Pol polyprotein, FRET biochemical assay, screening (AID 372)
# Applied conditions: HIV-1 RT RNase H, FRET RNA/DNA substrate fluorescence; at 10 µM; stronger effect = higher value
In all, about 100,000 compounds went through this assay and about 770 (0.77%) were called active. Only a selection was taken, and actives are over-represented in it overall.
Quantity measured: inhibition

Solved entries (count: 5):
O=C(CSc1nnc(-c2ccccc2)n1-c1ccccc1)N/N=C/C=C/c1ccccc1	15% (inactive)
O=C1NC(=O)C(=Cc2cn(-c3ccccc3)nc2-c2ccc(Br)cc2)C(=O)N1	59% (active)
O=C(N/N=C/c1ccc(O)cc1)c1ccc([N+](=O)[O-])cc1	0% (inactive)
COc1ccc(OC)c(NC(=O)CN(CCc2ccccc2)S(=O)(=O)c2ccccc2)c1	15% (inactive)
O=C1c2ccccc2C(=O)N1CCc1nc2ccccc2c(=O)n1-c1ccc(Br)cn1	40% (inactive)

Measured inhibition, O=C(N/N=C/c1ccc(O)c(O)c1)c1ccc([N+](=O)[O-])cc1 : 51% (active)

Measured inhibition, O=C1NC(=O)C(=Cc2cn(-c3ccccc3)nc2-c2ccc(Cl)cc2)C(=O)N1 : 41% (inactive)

Measured inhibition, O=C1NC(=O)c2ccc3c4c(ccc1c24)CC3 : 2% (inactive)

Measured inhibition, Cc1cccc(C(=O)NN=C2CCCCC2)c1 : 7% (inactive)

Measured inhibition, NN1C(=O)c2ccc3c4c(ccc(c24)C1=O)CC3 : 0% (inactive)

Measured inhibition, CC(=O)N/C(=C\c1ccccc1)C(=O)NCC(=O)O : 6% (inactive)

###

# Target desc: Gag-Pol polyprotein (Human immunodeficiency virus type 1 group M subtype B (isolate HXB2))
# Run description: RNase H inhibition, HIV 1 Gag Pol polyprotein, FRET biochemical assay, screening (AID 372)
# Applied conditions: HIV-1 RT RNase H, FRET RNA/DNA substrate fluorescence; at 10 µM
The campaign covered roughly 100,000 compounds. About 770 (0.77%) were called active. Rule as the data show it: active = inhibition above about 50%; inactive = the rest. This is one part of a sample in which actives are shown more often than they occur.
Could you please pick one outcome from this set? active, inactive

Some solved cases for reference:
CCC(C)OC(=O)C1=C(C)NC2=C(C(=O)CC(c3ccc(Cl)cc3)C2)C1c1ccc(OC(C)=O)cc1 (stereo not given)	inactive
O=Cc1cc(Cl)c(OCc2ccc([N+](=O)[O-])cc2)c(Cl)c1	inactive
Oc1cccc(-c2nc(-c3ccccc3)c(-c3ccc(Br)cc3)[nH]2)c1	inactive

Could you now look at the following compound, please?
Can you look up the reported call for Cn1c(-c2ccccn2)nc2ccccc21 for me? inactive
